The reported measurements were obtained from patent US9499550B2.

tested on: HCV genotype 1b (Con1) replicon in HUH-7 cells; assay: HCV replicon luciferase reporter assay, genotype 1b; format: cell-based; conditions: Hepatitis C virus, Huh-7, 72 h, HCV genotype 1b replicon luciferase, 3 days incubation, read-out: LE_1b (EC50, range)
pEC50: −log10 of the molar value.
Reported pEC50 values are given for each entry in this list.

COMPOUND: COc1ccc2c(O[C@@H]3C[C@H]4C(=O)N[C@]5(C(=O)NS(=O)(=O)C6(CF)CC6)C[C@H]5/C=C\CC[C@@H](C)C[C@@H](C)[C@H](NC(=O)OC(C)(C)C(F)F)C(=O)N4C3)nc3c(c2c1)CCCO3
pEC50: 8.30 to 9.00

*Q* Recall and state the measured pEC50 for `COc1cnc(O[C@@H]2C[C@H]3C(=O)N[C@]4(C(=O)NS(=O)(=O)C5(CO)CC5)C[C@H]4/C=C\CC[C@H](C)C[C@@H](C)[C@H](NC(=O)OC(C)(C)C)C(=O)N3C2)c2ccccc12` .
*A* > 8.26

*Q* Recall and state the measured pEC50 for `CC[C@@H]1C[C@H](C)CC/C=C\[C@@H]2C[C@@]2(C(=O)NS(=O)(=O)C2CC2)NC(=O)[C@@H]2C[C@@H](Oc3ncc(N4CCOCC4)c4cc(OC)c(F)cc34)CN2C(=O)[C@H]1NC(=O)OC(C)(C)C` .
*A* 8.30 to 9.00

----------
Reported EC50 values are given for each entry in this list.
tested on: HCV genotype 1b (Con1) replicon in HUH-7 cells; experiment: HCV replicon luciferase reporter assay, genotype 1b; type: cell-based; settings: Hepatitis C virus, Huh-7, 72 h, HCV genotype 1b replicon luciferase, 3 days incubation, read-out: LE_1b (EC50, range)

Examples with answers:
COMPOUND: CCOc1cnc(O[C@@H]2C[C@H]3C(=O)N[C@]4(C(=O)NS(=O)(=O)C5(C)CC5)C[C@H]4/C=C\CC[C@@H](C)C[C@@H](CC)[C@H](NC(=O)OC(C)(C)C(F)F)C(=O)N3C2)c2ccccc12 [Compound 5531]
RECORDED RESULT: 0.51 to 1 nM
--
COMPOUND: C[C@@H]1CC/C=C\[C@@H]2C[C@@]2(C(=O)NS(=O)(=O)C2(CF)CC2)NC(=O)[C@@H]2C[C@@H](Oc3nc4c(c5ccccc35)CCCO4)CN2C(=O)[C@@H](NC(=O)OC(C)(C)C(F)(F)F)[C@H](C)C1 [Compound 6050]
RECORDED RESULT: 0.1 to 0.5 nM
--
COMPOUND: COc1cc2cc(-c3ccc(OC(C)C)cc3)nc(O[C@@H]3C[C@H]4C(=O)N[C@]5(C(=O)NS(=O)(=O)C6(C)CC6)C[C@H]5/C=C\CC[C@H](C)C[C@@H](C)[C@H](NC(=O)OC(C)(C)C(F)(F)F)C(=O)N4C3)c2cc1F [Compound 3185]
RECORDED RESULT: 4.82 to 103 nM

*Q* Recall and state the measured EC50 for CCCOc1cnc(O[C@@H]2C[C@H]3C(=O)N[C@]4(C(=O)NS(=O)(=O)C5CC5)C[C@H]4/C=C\CC[C@H](C)C[C@@H](C)[C@H](NC(=O)OC(C)(C)C(F)(F)F)C(=O)N3C2)c2ccccc12 [Compound 5090] .
*A* 4.82 to 103 nM

----------
tested on: HCV genotype 1b (Con1) replicon in HUH-7 cells; experiment: HCV replicon luciferase reporter assay, genotype 1b; assay type: cell-based; settings: Hepatitis C virus, Huh-7, 72 h, HCV genotype 1b replicon luciferase, 3 days incubation, read-out: LE_1b (EC50, range)
Reported EC50 values are given for each entry in this list.

ENTRY SMILES: COc1ccc2nc(C(C)C)c(O[C@@H]3C[C@H]4C(=O)N[C@]5(C(=O)NS(=O)(=O)C6CC6)C[C@H]5/C=C\CC[C@@H](C)C[C@@H](C)[C@H](NC(=O)OC(C)(C)C)C(=O)N4C3)nc2c1
STUDY SYSTEM: HCV genotype 1b (Con1) replicon in HUH-7 cells
RECORDED METRIC: EC50
RECORDED RESULT: 1.01 to 5 nM

Consider the additional compound presented here.
*Q* Recall and state the measured EC50 for `C=COc1cnc(O[C@@H]2C[C@H]3C(=O)N[C@]4(C(=O)NS(=O)(=O)C5(C)CC5)C[C@H]4/C=C\CC[C@@H](C)C[C@@H](C)[C@H](NC(=O)OC(C)(C)C)C(=O)N3C2)c2ccccc12` .
*A* < 5.46 nM

----------
Reported pEC50 values are given for each entry in this list.
system: HCV genotype 1b (Con1) replicon in HUH-7 cells; test: HCV replicon luciferase reporter assay, genotype 1b; assay type: cell-based; settings: Hepatitis C virus, Huh-7, 72 h, HCV genotype 1b replicon luciferase, 3 days incubation, read-out: LE_1b (EC50, range)
pEC50: −log10 of the molar value.

ENTRY SMILES: CCOc1nnc(O[C@@H]2C[C@H]3C(=O)N[C@]4(C(=O)NS(=O)(=O)C5CC5)C[C@H]4/C=C\CC[C@H](C)C[C@@H](C)[C@H](NC(=O)NC(C)(C)C)C(=O)N3C2)c2ccccc12
pEC50: < 7.06
--
ENTRY SMILES: COc1ccc2c(O[C@@H]3C[C@H]4C(=O)N[C@]5(C(=O)NS(=O)(=O)C6(C)CC6)C[C@H]5/C=C\CC[C@@H](C)C[C@@H](C)[C@H](NC(=O)OC(C)(C)C)C(=O)N4C3)ncc(OC)c2c1
pEC50: > 8.26
--
ENTRY SMILES: COc1ccc2c(O[C@@H]3C[C@H]4C(=O)N[C@]5(C(=O)NS(=O)(=O)C6(C)CC6)C[C@H]5/C=C\CC[C@@H](C)C[C@@H](C)[C@H](NC(=O)OC(C)(C)C(F)(F)F)C(=O)N4C3)nc(OC(C)C)cc2c1
pEC50: 8.30 to 9.00

*Q* Recall and state the measured pEC50 for `COc1cnc(O[C@@H]2C[C@H]3C(=O)N[C@]4(C(=O)NS(=O)(=O)C5CCC5)C[C@H]4/C=C\CC[C@H](C)C[C@@H](C)[C@H](NC(=O)OC(C)(C)C(F)(F)F)C(=O)N3C2)c2ccccc12` .
*A* > 8.26

----------
system: HCV genotype 1b (Con1) replicon in HUH-7 cells; assay: HCV replicon luciferase reporter assay, genotype 1b; type: cell-based; conditions: Hepatitis C virus, Huh-7, 72 h, HCV genotype 1b replicon luciferase, 3 days incubation, read-out: LE_1b (EC50, range)
Reported EC50 values are given for each entry in this list.

Examples with answers:
COMPOUND: CC[C@@H]1C[C@H](C)CC/C=C\[C@@H]2C[C@@]2(C(=O)NS(=O)(=O)C2(C)CC2)NC(=O)[C@@H]2C[C@@H](Oc3ncc(N4CCOCC4)c4ccccc34)CN2C(=O)[C@H]1NC(=O)OC(C)(C)C [Compound 5417]
EC50: 1.01 to 5 nM

COMPOUND: CCOc1cc2ccccc2c(O[C@@H]2C[C@H]3C(=O)N[C@]4(C(=O)NS(=O)(=O)C5(CF)CC5)C[C@H]4/C=C\CC[C@@H](C)C[C@@H](C)[C@H](NC(=O)OC(C)(C)C(F)(F)F)C(=O)N3C2)n1 [Compound 6112]
EC50: 0.51 to 1 nM

COMPOUND: CCOc1cc2ccccc2c(O[C@@H]2C[C@H]3C(=O)N[C@]4(C(=O)NS(=O)(=O)C5(C)CC5)C[C@H]4/C=C\CC[C@H](C)C[C@@H](C)[C@H](NC(=O)OC(C)(C)C(F)(F)F)C(=O)N3C2)n1 [Compound 6099]
EC50: 1.01 to 5 nM

Consider the additional compound presented here.
*Q* Recall and state the measured EC50 for CC[C@@H]1C[C@H](C)CC/C=C\[C@@H]2C[C@@]2(C(=O)NS(=O)(=O)C2(C)CC2)NC(=O)[C@@H]2C[C@@H](Oc3ncc(OC)c4ccc(F)cc34)CN2C(=O)[C@H]1NC(=O)O[C@H](C)C(F)(F)F [Compound 4357] .
*A* 0.51 to 1 nM

----------
system: HCV genotype 1b (Con1) replicon in HUH-7 cells; test: HCV replicon luciferase reporter assay, genotype 1b; assay type: cell-based; details: Hepatitis C virus, Huh-7, 72 h, HCV genotype 1b replicon luciferase, 3 days incubation, read-out: LE_1b (EC50, range)
Reported EC50 values are given for each entry in this list.

ENTRY SMILES: COc1ccc2c(O[C@@H]3C[C@H]4C(=O)N[C@]5(C(=O)NS(=O)(=O)C6(C)CC6)C[C@H]5/C=C\CC[C@@H](C)C[C@@H](C)[C@H](NC(=O)OC(C)(C)C(C)(F)F)C(=O)N4C3)nc(-c3ccc(OC(C)C)cc3)c(OC)c2c1
STUDY SYSTEM: HCV genotype 1b (Con1) replicon in HUH-7 cells
EC50: < 5.46 nM

Consider the additional compound presented here.
*Q* Recall and state the measured EC50 for `COc1cc2ccnc(O[C@@H]3C[C@H]4C(=O)N[C@]5(C(=O)NS(=O)(=O)C6(F)CC6)C[C@H]5/C=C\CC[C@@H](C)C[C@@H](C)[C@H](NC(=O)OCC5(C)CC5)C(=O)N4C3)c2cc1F` .
*A* < 5.46 nM
